# assay_target: recombinant novel amylase (Saccharolobus solfataricus)
# assay_explanation: Substrate specificity of the recombinant novel amylase (crude enzyme solution)
# condition_info: 35.2 Units/ml crude enzyme solution; 10 mM substrate (amylopectin and soluble starch 3.0%)

molecule	Liberated oligosaccharide
OC[C@H]1O[C@H](OC[C@H]2O[C@H](O[C@H]3[C@H](O)[C@@H](O)C(O)O[C@@H]3CO)[C@H](O)[C@@H](O)[C@@H]2O)[C@H](O)[C@@H](O)[C@@H]1O (stereo partly shown) [Panose]	not decomposed
OC[C@H]1O[C@H](OC[C@H]2OC(O)[C@H](O)[C@@H](O)[C@@H]2O)[C@H](O)[C@@H](O)[C@@H]1O (stereo partly shown) [Isomaltose]	not decomposed
OC[C@H]1O[C@H](OC[C@H]2O[C@H](OC[C@H]3OC(O)[C@H](O)[C@@H](O)[C@@H]3O)[C@H](O)[C@@H](O)[C@@H]2O)[C@H](O)[C@@H](O)[C@@H]1O (stereo partly shown) [Isomaltotriose]	not decomposed
OC[C@H]1O[C@H](OC[C@H]2O[C@H](OC[C@H]3O[C@H](OC[C@H]4O[C@H](OC[C@H]5OC(O)[C@H](O)[C@@H](O)[C@@H]5O)[C@H](O)[C@@H](O)[C@@H]4O)[C@H](O)[C@@H](O)[C@@H]3O)[C@H](O)[C@@H](O)[C@@H]2O)[C@H](O)[C@@H](O)[C@@H]1O (stereo partly shown) [Isomaltopentaose]	not decomposed

----------
# assay_target: amylase derived from the Sulfolobus solfataricus strain KM1 (Saccharolobus solfataricus)
# Construct: endogenous in cells; host or cells: Sulfolobus solfataricus strain KM1 cells
# Sequence (Q55088 1-559): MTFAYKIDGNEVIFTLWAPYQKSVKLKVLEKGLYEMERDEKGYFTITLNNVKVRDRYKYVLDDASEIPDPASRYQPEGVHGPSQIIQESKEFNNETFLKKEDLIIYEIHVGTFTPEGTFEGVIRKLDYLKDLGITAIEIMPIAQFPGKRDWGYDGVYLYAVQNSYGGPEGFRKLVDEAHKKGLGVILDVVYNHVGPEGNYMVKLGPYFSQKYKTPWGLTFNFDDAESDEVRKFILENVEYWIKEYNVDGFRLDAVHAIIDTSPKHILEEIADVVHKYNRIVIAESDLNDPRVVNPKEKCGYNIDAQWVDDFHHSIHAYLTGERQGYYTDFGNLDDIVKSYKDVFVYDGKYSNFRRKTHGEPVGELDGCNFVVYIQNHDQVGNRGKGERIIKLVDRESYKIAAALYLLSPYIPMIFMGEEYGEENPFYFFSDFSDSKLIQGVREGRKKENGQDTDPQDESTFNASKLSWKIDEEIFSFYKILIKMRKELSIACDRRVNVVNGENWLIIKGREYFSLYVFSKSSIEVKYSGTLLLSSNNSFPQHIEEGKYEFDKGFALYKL
# assay_explanation: Substrate specificity of the purified amylase (hydrolyzing properties, TSK-gel Amide-80 HPLC)
# Format: biochemical
# condition_info: 25.0 Units/ml enzyme; 10 mM substrate (amylopectin and soluble starch 2.8%); 1 Unit = 1 μmol per hour
Here the recorded Production rate of mono- and disaccharides is given for each entry.
observable: Production rate of mono- and disaccharides (units/ml)

compound	result_value
OC[C@H]1O[C@H](O[C@H]2O[C@H](CO)[C@@H](O)[C@H](O)[C@H]2O)[C@H](O)[C@@H](O)[C@@H]1O	0
OC[C@H]1O[C@H](OC[C@H]2O[C@H](O[C@H]3[C@H](O)[C@@H](O)C(O)O[C@@H]3CO)[C@H](O)[C@@H](O)[C@@H]2O)[C@H](O)[C@@H](O)[C@@H]1O (stereo partly shown)	0
OC[C@H]1O[C@H](O[C@H]2[C@H](O)[C@@H](O)[C@@H](O[C@H]3[C@H](O)[C@@H](O)C(O)O[C@@H]3CO)O[C@@H]2CO)[C@H](O)[C@@H](O)[C@@H]1O (mixture of isomers)	0.30
OCC1OC(OC2OC(CO)C(OC3OC(CO)C(OC4OC(CO)C(OC5OC(CO)C(O)C(O)C5O)C(O)C4O)C(O)C3O)C(O)C2O)C(O)C(O)C1O [Maltotriosyltrehalose, α-D-maltotetraosyl α-D-glucopyranoside]	25.0
OC[C@H]1O[C@H](OC[C@H]2O[C@H](OC[C@H]3O[C@H](OC[C@H]4OC(O)[C@H](O)[C@@H](O)[C@@H]4O)[C@H](O)[C@@H](O)[C@@H]3O)[C@H](O)[C@@H](O)[C@@H]2O)[C@H](O)[C@@H](O)[C@@H]1O (stereo partly shown)	0
OC[C@H]1O[C@H](OC[C@H]2O[C@H](OC[C@H]3O[C@H](OC[C@H]4O[C@H](OC[C@H]5OC(O)[C@H](O)[C@@H](O)[C@@H]5O)[C@H](O)[C@@H](O)[C@@H]4O)[C@H](O)[C@@H](O)[C@@H]3O)[C@H](O)[C@@H](O)[C@@H]2O)[C@H](O)[C@@H](O)[C@@H]1O (stereo partly shown)	0
OC[C@H]1O[C@H](OC[C@H]2OC(O)[C@H](O)[C@@H](O)[C@@H]2O)[C@H](O)[C@@H](O)[C@@H]1O (stereo partly shown)	0
OC[C@H]1O[C@H](O[C@H]2[C@H](O)[C@@H](O)[C@@H](O[C@H]3[C@H](O)[C@@H](O)[C@@H](O[C@H]4[C@H](O)[C@@H](O)C(O)O[C@@H]4CO)O[C@@H]3CO)O[C@@H]2CO)[C@H](O)[C@@H](O)[C@@H]1O (stereo partly shown)	0.31
OCC1OC(OC2OC(CO)C(OC3OC(CO)C(O)C(O)C3O)C(O)C2O)C(O)C(O)C1O [Glucosyltrehalose, α-D-maltosyl α-D-glucopyranoside]	0.04
OC[C@H]1O[C@H](OC[C@H]2O[C@H](OC[C@H]3OC(O)[C@H](O)[C@@H](O)[C@@H]3O)[C@H](O)[C@@H](O)[C@@H]2O)[C@H](O)[C@@H](O)[C@@H]1O (stereo partly shown)	0

----------
# assay_target: amylase derived from the Sulfolobus solfataricus strain KM1 (Saccharolobus solfataricus, UniProt Q55088)
# Construct: endogenous in cells; host or cells: Sulfolobus solfataricus strain KM1 cells
# assay_explanation: biochemical
# Format: biochemical
# condition_info: Concentration 5 mM
criterion met if Residual activity is below 90%. criterion not met if not; exact matches included in criterion not met.

> print(dat)
                smiles.code     assigned.class
1        [Cl-].[Cl-].[Mg+2]  criterion not met
2  O=S(=O)([O-])[O-].[Fe+2]      criterion met
3        [Cl-].[Cl-].[Co+2]  criterion not met
4        [Ca+2].[Cl-].[Cl-]  criterion not met
5    O=[N+]([O-])[O-].[Ag+]  criterion not met
6  O=S(=O)([O-])[O-].[Cu+2]      criterion met
7        [Cl][Fe]([Cl])[Cl]      criterion met
8                      OCCS  criterion not met
9              [Cl][Mn][Cl]  criterion not met

----------
Here the recorded Residual activity is given for each entry.
# Tested on: transferase derived from the Sulfolobus solfataricus strain KM1
# assay_explanation: Influence of activators and inhibitors on glucosyltrehalose-producing activity
# Type: biochemical
# condition_info: Concentration 5 mM
observable: Residual activity (%)

> print(dat)
                                    compound         observable  unit.abbrev  result.value
 1          O=S(=O)([O-])[O-].[Cu+2] [CuSO4]  Residual activity            %           0.0
 2  CCCCCCCCCCCCOS(=O)(=O)[O-].[Na+] [SDS, sodium dodecyl sulfate]  Residual activity            %           0.0
 3                [Cl-].[Cl-].[Mg+2] [MgCl2]  Residual activity            %         111.3
 4            O=[N+]([O-])[O-].[Ag+] [AgNO3]  Residual activity            %         121.0
 5                [Cl][Fe]([Cl])[Cl] [FeCl3]  Residual activity            %          90.0
 6                      [Cl][Mn][Cl] [MnCl2]  Residual activity            %          74.2
 7                [Ca+2].[Cl-].[Cl-] [CaCl2]  Residual activity            %          93.6
 8                  OCCS [2-Mercaptoethanol]  Residual activity            %         100.3
 9                [Cl-].[Cl-].[Co+2] [CoCl2]  Residual activity            %          88.5
10  O[C@H](CS)[C@H](O)CS (racemic) [Dithiothreitol]  Residual activity            %          84.5
11          O=S(=O)([O-])[O-].[Fe+2] [FeSO4]  Residual activity            %         108.3
